target: CB2 receptor (Mus musculus, UniProt P47936); construct: membranes were prepared from frozen mouse spleen; from tissue; host or cells: frozen mouse spleen membranes; experiment: CB2 receptor binding assay ([3H] CP-55,940 displacement, mouse spleen membranes); settings: mouse spleen membranes, [3H] CP-55,940; read-out: CB2 (nM) binding affinity (Ki)
Sequence (P47936 whole entry): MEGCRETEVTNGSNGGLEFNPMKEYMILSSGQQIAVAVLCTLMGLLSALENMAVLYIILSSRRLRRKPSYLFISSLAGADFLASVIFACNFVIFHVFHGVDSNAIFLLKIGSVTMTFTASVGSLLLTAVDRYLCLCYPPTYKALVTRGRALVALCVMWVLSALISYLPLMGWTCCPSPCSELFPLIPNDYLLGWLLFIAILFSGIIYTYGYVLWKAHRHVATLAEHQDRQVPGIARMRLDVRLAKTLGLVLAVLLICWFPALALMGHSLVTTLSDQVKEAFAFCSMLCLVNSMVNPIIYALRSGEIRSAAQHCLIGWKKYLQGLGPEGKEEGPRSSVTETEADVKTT
PROPERTY: Ki (nM)
Write down the numeric answer in nM and omit the unit.

Which Ki value is on record for `CCCCCCC(C)(C)c1cc(O)c(-c2cc(F)cc(F)c2)c(O)c1` ? 8.4

Which Ki value is on record for `CCCCCCC(C)(C)c1cc(O)c(-c2cc(CO)ccc2C)c(O)c1` ? 7

Which Ki value is on record for `CCCCCCC(C)(C)c1cc(O)c(-c2cccc(C#N)c2)c(O)c1` ? 1.1

Which Ki value is on record for `CCCCCCC(C)(C)c1cc(O)c(-c2cc(Cl)cc(Cl)c2)c(O)c1` ? 0.6

Which Ki value is on record for `CCCCCCC(C)(C)c1cc(O)c(-c2cc(Cl)cc(Cl)c2)c(OC)c1` ? 13.9

Which Ki value is on record for `CCCCCCC(C)(C)c1cc(O)c(-c2cc(CO)ccc2CO)c(O)c1` ? 2.6

Which Ki value is on record for `CCCCCCC(C)(C)c1cc(O)c(-c2cc(O)ccc2CCCO)c(O)c1` ? 1

Which Ki value is on record for `CCCCCCC(C)(C)c1cc(O)c(-c2cc(C)c(O)c(C)c2)c(O)c1` ? 15.3

Which Ki value is on record for `CCCCCCC(C)(C)c1cc(O)c(-c2cc(C)c(OC)c(C)c2)c(O)c1` ? 12.8

Which Ki value is on record for `CCCCCCC(C)(C)c1cc(O)c(-c2cc(Cl)ccc2Cl)c(O)c1` ? 2.6

---

Molecular target: CB2 receptor (Mus musculus)
Construct: membranes were prepared from frozen mouse spleen; from tissue; host or cells: frozen mouse spleen membranes
Assay: CB2 receptor binding assay ([3H] CP-55,940 displacement, mouse spleen membranes)
Conditions: mouse spleen membranes, [3H] CP-55,940; read-out: CB2 (nM) binding affinity (Ki)
Description: The treated membranes were subsequently used in the binding assay described below. […] Radioactivity was detected using MicroScint 20 scintillation cocktail added directly to the dried filterplates, and the filterplates were counted using a Packard Instruments Top-Count. […] The normalized data was analyzed using a 4-parameter nonlinear logistic equation to yield IC50 values. […]
PROPERTY: log10 of Ki (log10 of the value in nM)
Friendly reminder: values = log10 of Ki, unit nM.

Which log10 of Ki value is on record for `CCCCCCC(C)(C)c1cc(O)c(-c2cc(C)c(N)c(C)c2)c(O)c1` ? 0.90

Which log10 of Ki value is on record for `CCCCCCC(C)(C)c1cc(O)c(-c2cc(C)ccc2F)c(O)c1` ? 0.36

Which log10 of Ki value is on record for `CCCCCCC(C)(C)c1cc(O)c(-c2cc(F)ccc2CO)c(O)c1` ? 0.26

Which log10 of Ki value is on record for `CCCCCCC(C)(C)c1cc(O)c(-c2cccc(C(=O)OCC)c2)c(O)c1` ? -0.10

Which log10 of Ki value is on record for `CCCCCCC(C)(C)c1cc(O)c(-c2ccccc2CO)c(O)c1` ? 0.15

Which log10 of Ki value is on record for `CCCCCCC(C)(C)c1cc(O)c(-c2cc(C(F)(F)F)cc(C(F)(F)F)c2)c(O)c1` ? -0.05

Which log10 of Ki value is on record for `CCCCCCC(C)(C)c1cc(O)c(-c2cc([N+](=O)[O-])cc([N+](=O)[O-])c2)c(O)c1` ? 0.54

Which log10 of Ki value is on record for `CCCCCCC(C)(C)c1cc(O)c(-c2cccc(/C=C/C(=O)OCC)c2)c(O)c1` ? 1.00

Which log10 of Ki value is on record for `CCCCCCC(C)(C)c1cc(O)c(-c2c(F)cccc2F)c(O)c1` ? 1.13
